Biological target: dipeptidyl peptidase IV (Homo sapiens)
Sequence (P27487 whole entry, species assumed): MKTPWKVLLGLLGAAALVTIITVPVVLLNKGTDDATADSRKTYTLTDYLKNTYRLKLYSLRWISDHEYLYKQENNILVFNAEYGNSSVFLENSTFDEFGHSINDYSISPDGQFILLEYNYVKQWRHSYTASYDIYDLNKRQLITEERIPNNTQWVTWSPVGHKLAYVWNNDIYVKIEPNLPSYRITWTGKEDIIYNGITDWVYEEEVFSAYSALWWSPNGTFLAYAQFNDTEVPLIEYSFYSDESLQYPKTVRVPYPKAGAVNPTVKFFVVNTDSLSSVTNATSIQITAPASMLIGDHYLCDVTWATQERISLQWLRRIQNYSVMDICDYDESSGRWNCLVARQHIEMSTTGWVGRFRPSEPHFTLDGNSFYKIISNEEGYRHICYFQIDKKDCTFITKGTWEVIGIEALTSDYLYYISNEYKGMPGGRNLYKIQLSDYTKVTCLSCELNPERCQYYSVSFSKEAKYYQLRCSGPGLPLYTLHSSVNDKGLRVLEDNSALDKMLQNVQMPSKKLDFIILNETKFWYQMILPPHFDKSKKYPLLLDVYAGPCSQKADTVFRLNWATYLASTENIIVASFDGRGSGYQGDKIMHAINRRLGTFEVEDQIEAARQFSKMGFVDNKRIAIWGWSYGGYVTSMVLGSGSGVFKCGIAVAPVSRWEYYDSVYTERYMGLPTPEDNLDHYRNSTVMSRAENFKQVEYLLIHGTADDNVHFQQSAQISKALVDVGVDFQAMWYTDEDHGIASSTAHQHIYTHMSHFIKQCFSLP
Assay: biochemical
Details: values without "*" = IC-50; read-out: IC50DPIV
quantity.kind: log10 IC50 (log10 of the value in µM)
Reminder: these figures are log10 of reported IC50, in µM before transformation.

Completed entries (count: 3):
COC(=O)C(CC(C)C)Nc1ccc(N2C(=O)CCCC2=O)cc1[N+](=O)[O-] (centres unmarked) ... 1.19
CCOC(=O)c1c(C)oc2c1c1c(c3ccccc32)OCN(C2CCS(=O)(=O)C2)C1 (centres unmarked) [D9.006] ... 1.53
Brc1cccc(/C=N/Nc2nnc3c(n2)[nH]c2ccccc23)c1 [D10.015] ... 1.09

Your task in this section: give log10 IC50 for each listed record.
1. COc1ccccc1/C=N/NC(=O)c1cccc([N+](=O)[O-])c1
2. CC(=O)Oc1ccc2oc(=O)c3c(c2c1)CCCN3C(C)=O
3. COc1ccc(NS(=O)(=O)c2ccc(/N=C/c3cc(Br)cc(Br)c3O)cc2)nn1
4. CCn1c(N2CCN(c3ccc(OC)cc3)CC2)nc2c1c(=O)[nH]c(=O)n2C

Solution:
1: 1.09; 2: 1.77; 3: 1.95; 4: 1.28

Your task in this section: give log10 IC50 for each listed record.
1. O=C1CCCC(=O)N1c1ccc(NCCc2ccc(O)cc2)c([N+](=O)[O-])c1 [D4.064]
2. Cc1ccc2nc(-c3ccc(N4C(=O)CC(N5CCC(C)CC5)C4=O)cc3)sc2c1 (centres unmarked)

Solution:
1. 1.74
2. 2.06

Your task in this section: give log10 IC50 for each listed record.
1. N#Cc1ccc(/C=N/NC(=O)c2ccccc2[N+](=O)[O-])cc1
2. O=C(N/N=C/c1ccc([N+](=O)[O-])c(O)c1)/C(=C\c1cccs1)NC(=O)c1ccccc1
3. CC(=O)Oc1cc2oc(=O)cc(C)c2cc1OC(C)=O
4. CCSc1nnc2n(-c3ccc(OC)cc3)c(=O)c3c4c(sc3n12)CCCC4 [D3.013]
5. O=C(COc1cccc([N+](=O)[O-])c1)N/N=C/c1ccc(O)c([N+](=O)[O-])c1
6. COc1cc(Br)ccc1OCC(=O)N/N=C/c1cc(O)c(O)c(Br)c1Br

Solution:
1: 1.79; 2: 0.81; 3: 1.77; 4: 1.03; 5: 1.39; 6: 1.01

Your task in this section: give log10 IC50 for each listed record.
1. Cn1cnnc1SCC(=O)OCN1C(=O)c2ccccc2C1=O
2. CCCC(=O)Cc1ccc(N(C(=O)CCC)S(=O)(=O)c2cccs2)cc1
3. CCOCCCNc1ccc(N2C(=O)CCCC2=O)cc1[N+](=O)[O-]
4. N#Cc1c(NC(=O)C(C(F)(F)F)C(F)(F)F)sc2c1CCCC2 [D6.058]
5. O=C(Nc1cccc(/N=C/c2cc(I)cc(I)c2O)c1)c1ccco1 [D6.010]
6. CCOc1ccc(/C=N/NC(=O)c2cc(-c3c(OC)ccc4ccccc34)n[nH]2)cc1 [D4.068]
7. CC1=C(C#N)C(=O)N=C(O)/C1=C\c1ccc(-c2ccc(Cl)cc2Cl)o1 [D6.101]

Solution:
1: 1.80; 2: 1.50; 3: 1.57; 4: 1.60; 5: 0.96; 6: 1.75; 7: 1.98

log10 IC50 measured on Cc1cc(Nc2ccc(N3C(=O)CCCC3=O)cc2[N+](=O)[O-])no1 = 1.30
